src = patent US20170267768A1

- assay.target: T1, His6-tagged recombinant human EphA2 protein (human, UniProt P29317 25-534)
- T1 construct: also called his-tagged recombinant, human EphA2; human EphA2 with c-terminal His6
- T1 sequence (P29317 25-534 limits assumed): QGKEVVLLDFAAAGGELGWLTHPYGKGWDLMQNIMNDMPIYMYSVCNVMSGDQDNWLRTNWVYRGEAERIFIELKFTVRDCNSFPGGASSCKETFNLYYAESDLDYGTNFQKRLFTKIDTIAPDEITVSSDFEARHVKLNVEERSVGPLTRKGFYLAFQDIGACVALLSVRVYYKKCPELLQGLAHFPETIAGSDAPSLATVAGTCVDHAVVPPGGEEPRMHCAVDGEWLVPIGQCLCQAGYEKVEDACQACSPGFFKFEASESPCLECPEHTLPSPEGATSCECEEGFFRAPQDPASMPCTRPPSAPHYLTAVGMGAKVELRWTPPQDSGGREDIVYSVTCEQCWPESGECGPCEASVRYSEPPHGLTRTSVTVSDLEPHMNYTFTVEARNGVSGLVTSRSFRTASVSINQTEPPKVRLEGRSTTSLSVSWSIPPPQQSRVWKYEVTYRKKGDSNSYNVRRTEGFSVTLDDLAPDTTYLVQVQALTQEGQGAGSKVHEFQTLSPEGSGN
- assay.summary: BLI (Octet Red 96); His6-EphA2 on anti-His sensors; slope of association curve of scFv-PEG-DSPE conjugate; TS1C printed as 100
Reported percent scFv-conjugate (not liposome-bound) EphA2 binding on-rate values for the following binders.
Please state the figure in %; there is no need to write the unit.

[[record]]
binder = "scFv-2C (scFv, also called clone 2) scFv: QVQLVQSGGGLVQPGGSLRLSCAASGFTFSSYAMHWVRQAPGKGLEWVSVISPAGRNKYYADSVKGRFTISRDNSKNTLYLQMNSLRAEDTAVYYCARASVGATGPFDIWGQGTLVTVSSASTGGGGSGGGGSGGGGSGGGGSSSELTQPPSVSVAPGQTVTITCQGDSLRSYYASWYQQKPGTAPKLLIYGENNRPSGVPDRFSGSSSGTSASLTITGAQAEDEADYYCNSRDSSGTHLTVFGGGTKLTVLGGGSGGC"
assay_value = 105

[[record]]
binder = "scFv-8C (scFv, also called clone 8) scFv: QVQLVQSGGGLVQPGGSLRLSCAASGFTFSSYAMHWVRQAPGKGLEWVTVISPSGHNTYYADSVKGRFTISRDNSKNTLYLQMNSLRAEDTAVYYCARASVGATGPFDIWGQGTLVTVSSASTGGGGSGGGGSGGGGSGGGGSSSELTQPPSVSVAPGQTVTITCQGDSLRSYYASWYQQKPGTAPKLLIYGENNRPSGVPDRFSGSSSGTSASLTITGAQAEDEADYYCNSRDSSGTHLTVFGGGTKLTVLGGGSGGC"
assay_value = 113

[[record]]
binder = "scFv-11C (scFv, also called clone 11) scFv: QVQLVQSGGGLVQPGGSLRLSCAASGFTFSSYAMHWVRQAPGKGLEWVAVISHHGSNTYYADSVKGRFTISRDNSKNTLYLQMNSLRAEDTAVYYCARASVGATGPFDIWGQGTLVTVSSASTGGGGSGGGGSGGGGSGGGGSSSELTQPPSVSVAPGQTVTITCQGDSLRSYYASWYQQKPGTAPKLLIYGENNRPSGVPDRFSGSSSGTSASLTITGAQAEDEADYYCNSRDSSGTHLTVFGGGTKLTVLGGGSGGC"
assay_value = 109


Fill blank: measured percent scFv-conjugate (not liposome-bound) EphA2 binding on-rate of the binder scFv-7C (scFv, also called clone 7) scFv: QVQLVQSGGGLVQPGGSLRLSCAASGFTFSSYAMHWVRQAPGKGLEWVSVISPAGPNTYYADSVKGRFTISRDNSKNTLYLQMNSLRAEDTAVYYCARASVGATGPFDIWGQGTLVTVSSASTGGGGSGGGGSGGGGSGGGGSSSELTQPPSVSVAPGQTVTITCQGDSLRSYYASWYQQKPGTAPKLLIYGENNRPSGVPDRFSGSSSGTSASLTITGAQAEDEADYYCNSRDSSGTHLTVFGGGTKLTVLGGGSGGC is ____.
110

And then scFv-16C (scFv) scFv: QVQLVQSGGGLVQPGGSLRLSCAASGFTFSSYAMHWVRQAPGKGLEWVSVISNNGHNTYYADSVKGRFTISRDNSKNTLYLQMNSLRAEDTAVYYCARASVGATGPFDIWGQGTLVTVSSASTGGGGSGGGGSGGGGSGGGGSSSELTQPPSVSVAPGQTVTITCQGDSLRSYYASWYQQKPGTAPKLLIYGENNRPSGVPDRFSGSSSGTSASLTITGAQAEDEADYYCNSRDSSGTHLTVFGGGTKLTVLGGGSGGC , what is it?
128

Query scFv-13C (scFv, also called clone 13) scFv: QVQLVQSGGGLVQPGGSLRLSCAASGFTFSSYAMHWVRQAPGKGLEWVTVISPTGANTYYADSVKGRFTISRDNSKNTLYLQMNSLRAEDTAVYYCARASVGATGPFDIWGQGTLVTVSSASTGGGGSGGGGSGGGGSGGGGSSSELTQPPSVSVAPGQTVTITCQGDSLRSYYASWYQQKPGTAPKLLIYGENNRPSGVPDRFSGSSSGTSASLTITGAQAEDEADYYCNSRDSSGTHLTVFGGGTKLTVLGGGSGGC next
105

scFv-3C (scFv, also called clone 3) scFv: QVQLVQSGGGLVQPGGSLRLSCAASGFTFSSYAMHWVRQAPGKGLEWVTVISPDGHNTYYADSVKGRFTISRDNSKNTLYLQMNSLRAEDTAVYYCARASVGATGPFDIWGQGTLVTVSSASTGGGGSGGGGSGGGGSGGGGSSSELTQPPSVSVAPGQTVTITCQGDSLRSYYASWYQQKPGTAPKLLIYGENNRPSGVPDRFSGSSSGTSASLTITGAQAEDEADYYCNSRDSSGTHLTVFGGGTKLTVLGGGSGGC ?
112
